# experiment_notes: Bioavailability (dose 8 mg/kg p.o.)
# Format: ADME, organism-based
# run_conditions: rat, in vivo, po
parameter_measured: bioavailability (%)

• Cc1cc(COc2ccc([C@]3(C)CCN([C@H](C)C(=O)NO)C3=O)cc2)c2ccccc2n1 (stereo in doubt) = 41

###

# target_desc: Disintegrin and metalloproteinase domain-containing protein 17 (Sus scrofa, UniProt O77636)
# Sequence (O77636 whole entry, the tested form may be a part): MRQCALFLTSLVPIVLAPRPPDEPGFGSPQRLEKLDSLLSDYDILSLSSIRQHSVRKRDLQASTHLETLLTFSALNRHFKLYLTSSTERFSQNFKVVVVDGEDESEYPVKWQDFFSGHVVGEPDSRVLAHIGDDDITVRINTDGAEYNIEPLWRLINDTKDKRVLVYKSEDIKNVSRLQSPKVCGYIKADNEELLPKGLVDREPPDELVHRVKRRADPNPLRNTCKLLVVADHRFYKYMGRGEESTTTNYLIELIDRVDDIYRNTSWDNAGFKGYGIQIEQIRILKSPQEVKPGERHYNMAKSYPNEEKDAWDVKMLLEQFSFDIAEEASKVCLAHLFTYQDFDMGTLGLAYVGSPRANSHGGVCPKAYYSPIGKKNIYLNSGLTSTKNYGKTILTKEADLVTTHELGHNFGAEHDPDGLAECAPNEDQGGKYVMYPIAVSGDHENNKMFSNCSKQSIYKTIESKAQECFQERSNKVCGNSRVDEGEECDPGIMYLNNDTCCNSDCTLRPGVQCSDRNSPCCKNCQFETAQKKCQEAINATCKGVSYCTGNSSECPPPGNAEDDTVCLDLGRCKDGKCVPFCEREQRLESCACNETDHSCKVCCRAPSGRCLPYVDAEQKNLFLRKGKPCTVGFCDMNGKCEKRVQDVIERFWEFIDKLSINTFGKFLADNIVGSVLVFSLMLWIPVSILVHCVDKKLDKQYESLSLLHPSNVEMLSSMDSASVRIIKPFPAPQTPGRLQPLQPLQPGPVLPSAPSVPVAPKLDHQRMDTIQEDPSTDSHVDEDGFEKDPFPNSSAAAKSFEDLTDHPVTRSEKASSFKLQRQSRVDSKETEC
IC50 overview
parameter_measured: IC50 (nM)

• C[C@H](C(=O)NO)N1CC[C@@](C)(c2ccc(OCc3ccc([N+](=O)[O-])cc3)cc2)C1=O = 6
• COc1cc(COc2ccc([C@]3(C)CCN([C@H](C)C(=O)NO)C3=O)cc2)cc(OC)c1 = 7
• C[C@H](C(=O)NO)N1CC[C@@](C)(c2ccc(OCc3cccc([N+](=O)[O-])c3)cc2)C1=O = 6
• Cc1cncc(C)c1COc1ccc([C@]2(C)CCN([C@H](C)C(=O)NO)C2=O)cc1 (stereo in doubt; 5p) = 16

Reference source: ChEMBL document CHEMBL1135609
